assay: kinetic analysis, non-endpoint assay at 23° C.; format: biochemical; conditions: standard error in parenthetical, NDB = activity not robust enough for kinetic characterization

MOLECULE	Vmax 2,4-D
MON-HT5: engineered oxygenase protein, amino acid sequence SEQ ID NO:28 (protein) MHAALTPLTNKYRFIDVQPLTGVLGAEITGVDLREPLDDSTWNEILDAFHTYQVIYFPGQAITNEQHIAFSRRFGPVDPVPLLKSIEGYPEVQMIRREANESGRVIGDDWHTDSTFLDAPPAAVVMRAIEVPEYGGDTGFLSMYSAWETLSPTMQATIEGLNVVHSATKVFGSLYQATNWRFSNTSVKVMDVDAGDRETVHPLVVTHPVTGRRALYCNQVYCQKIQGMTDAESKSLLQFLYEHATKFDFTCRVRWKKDQVLVWDNLCTMHRAVPDYAGKFRYLTRTTVAGDKPSR	NDB
MON-HT6: engineered oxygenase protein, amino acid sequence SEQ ID NO:31 (protein) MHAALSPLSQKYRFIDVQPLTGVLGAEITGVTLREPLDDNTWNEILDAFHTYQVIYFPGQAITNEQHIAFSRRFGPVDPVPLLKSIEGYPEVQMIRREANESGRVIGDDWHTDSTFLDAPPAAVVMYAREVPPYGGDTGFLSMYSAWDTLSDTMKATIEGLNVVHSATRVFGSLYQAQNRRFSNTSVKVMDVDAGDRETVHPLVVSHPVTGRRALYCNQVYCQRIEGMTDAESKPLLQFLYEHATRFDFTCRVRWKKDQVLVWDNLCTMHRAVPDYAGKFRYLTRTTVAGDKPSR	NDB
